These entries and their values trace back to paper PMC5916898.

SUBJECT OF TEST: KLF3 (Homo sapiens, UniProt P57682)
Sequence (P57682 whole entry): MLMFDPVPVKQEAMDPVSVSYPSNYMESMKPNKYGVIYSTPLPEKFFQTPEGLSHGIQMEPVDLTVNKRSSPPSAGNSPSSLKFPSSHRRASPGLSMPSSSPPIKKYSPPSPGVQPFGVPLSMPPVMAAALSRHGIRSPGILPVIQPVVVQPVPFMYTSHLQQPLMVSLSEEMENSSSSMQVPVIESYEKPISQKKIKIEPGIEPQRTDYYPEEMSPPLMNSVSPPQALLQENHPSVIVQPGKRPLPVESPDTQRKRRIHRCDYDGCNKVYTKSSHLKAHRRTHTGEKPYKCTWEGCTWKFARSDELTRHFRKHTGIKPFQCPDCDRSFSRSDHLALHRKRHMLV
ASSAY PROCEDURE: competition; 150 mM NaCl, 50 mM Tris pH 8, 0.25% NP-40, 1 mM TCEP; 4 C, 2 h; 100 ug HeLa nuclear lysate; free competitor against 200 nM immobilised SP/KLF wild-type
MEASUREMENT SETUP: protein: extract
RECORDED METRIC: IC50 (nM)

binder="SP/KLF wild-type (dsDNA) DNA 1: GAGAGCCCCGCCCCCTGGCT DNA 2: AGCCAGGGGGCGGGGCTCTC" unit_text=nM recorded_number=112
